Source of measurements: patent US8513234B2

Tested on: virus containing N155H mutation in the integrase gene
Condition: k = IC50(mutant)/IC50(wild type)
Reported Endpoint: Number of fold shift in IC50 versus wild type IIIB, N155H

- Molecule: "COC1(C)CCC(N(C)C(=O)C(=O)N(C)C)c2nc(C(=O)NCc3ccc(F)c(C)c3)c(O)c(=O)n2C1 (single isomer, unassigned) [Compound 2D]"
  Reported Result: 2
- Molecule: "CCN(C(=O)C(=O)N(C)C)[C@@H]1CC[C@H](OC)Cn2c1nc(C(=O)NCc1ccc(F)cc1)c(O)c2=O"
  Reported Result: 2
- Molecule: "Cc1cc(CNC(=O)c2nc3n(c(=O)c2O)CC(C)(C)CC[C@@H]3N(C)C(=O)C(=O)N(C)C)ccc1F"
  Reported Result: 14
- Molecule: "CC[C@H]1COC[C@@H](N(C)C(=O)C(=O)N(C)C)c2nc(C(=O)NCc3ccc(F)cc3)c(O)c(=O)n21"
  Reported Result: 1
- Molecule: "Cc1cc(CNC(=O)c2nc3n(c(=O)c2O)[C@@H](C)COC[C@H]3N(C)C(=O)C(=O)N(C)C)ccc1F"
  Reported Result: 2
- Molecule: "COC1(C)CCC(N(C)C(=O)C(=O)N(C)C)c2nc(C(=O)NCc3ccc(F)c(C)c3)c(O)c(=O)n2C1 (single isomer, unassigned) [Compound 2C]"
  Reported Result: 19

====

Test system: virus containing Y143R mutation in the integrase gene
Condition: k = IC50(mutant)/IC50(wild type)
Reported Endpoint: Number of fold shift in IC50 versus wild type IIIB, Y143R

- Compound: "CN(C)C(=O)C(=O)N(C)C1COCCn2c1nc(C(=O)NCc1ccc(F)cc1)c(O)c2=O (single isomer, unassigned; (+)) [Compound V, reference compound]"
  System Under Test: "virus containing Y143R mutation in the integrase gene"
  Reported Result: 1
- Compound: "CCN(C(=O)C(=O)N(C)C)[C@@H]1CC[C@H](OC)Cn2c1nc(C(=O)NCc1ccc(F)cc1)c(O)c2=O [Compound 6A]"
  System Under Test: "virus containing Y143R mutation in the integrase gene"
  Reported Result: 3
- Compound: "Cc1ccc(CNC(=O)c2nc3n(c(=O)c2O)C(C)CCCC3N(C)C(=O)C(=O)N(C)C)cc1F (single isomer, unassigned) [Compound 3B]"
  System Under Test: "virus containing Y143R mutation in the integrase gene"
  Reported Result: 1
- Compound: "Cc1cc(CNC(=O)c2nc3n(c(=O)c2O)[C@@H](C)COC[C@H]3N(C)C(=O)C(=O)N(C)C)ccc1F [Compound 4A]"
  System Under Test: "virus containing Y143R mutation in the integrase gene"
  Reported Result: 2
- Compound: "CN(C)C(=O)C(=O)N(C)C1CCCCn2c1nc(C(=O)NCc1ccc(F)cc1)c(O)c2=O (single isomer, unassigned; (-)) [Compound Y, reference compound]"
  System Under Test: "virus containing Y143R mutation in the integrase gene"
  Reported Result: 1
- Compound: "CN(C)C(=O)C(=O)N(C)C1COCCn2c1nc(C(=O)NCc1ccc(F)cc1)c(O)c2=O (single isomer, unassigned; (-)) [Compound W, reference compound]"
  System Under Test: "virus containing Y143R mutation in the integrase gene"
  Reported Result: 3
- Compound: "Cc1cc(CNC(=O)c2nc3n(c(=O)c2O)CC(C)(C)CC[C@H]3N(C)C(=O)C(=O)N(C)C)ccc1F [Compound 1A]"
  System Under Test: "virus containing Y143R mutation in the integrase gene"
  Reported Result: 1
- Compound: "CO[C@]1(C)CC[C@@H](N(C)C(=O)C(=O)N(C)C)c2nc(C(=O)NCc3ccc(F)c(C)c3)c(O)c(=O)n2C1 [Compound 2A]"
  System Under Test: "virus containing Y143R mutation in the integrase gene"
  Reported Result: 2
- Compound: "CC1(C)OCCn2c1nc(C(=O)NCc1ccc(F)cc1)c(O)c2=O [Compound Z, reference compound]"
  System Under Test: "virus containing Y143R mutation in the integrase gene"
  Reported Result: 1
- Compound: "CC[C@@H]1COC[C@@H](N(C)C(=O)C(=O)N(C)C)c2nc(C(=O)NCc3ccc(F)cc3)c(O)c(=O)n21 [Compound 5D]"
  System Under Test: "virus containing Y143R mutation in the integrase gene"
  Reported Result: 1
- Compound: "Cc1cc(CNC(=O)c2nc3n(c(=O)c2O)[C@H](C)COC[C@@H]3N(C)C(=O)C(=O)N(C)C)ccc1F [Compound 4C]"
  System Under Test: "virus containing Y143R mutation in the integrase gene"
  Reported Result: 1
- Compound: "CC[C@H]1COC[C@@H](N(C)C(=O)C(=O)N(C)C)c2nc(C(=O)NCc3ccc(F)cc3)c(O)c(=O)n21 [Compound 5A]"
  System Under Test: "virus containing Y143R mutation in the integrase gene"
  Reported Result: 1
- Compound: "COC1(C)CCC(N(C)C(=O)C(=O)N(C)C)c2nc(C(=O)NCc3ccc(F)c(C)c3)c(O)c(=O)n2C1 (single isomer, unassigned) [Compound 2D]"
  System Under Test: "virus containing Y143R mutation in the integrase gene"
  Reported Result: 2
